Target: RORγ (UniProt P51449)
Sequence (P51449 1-518): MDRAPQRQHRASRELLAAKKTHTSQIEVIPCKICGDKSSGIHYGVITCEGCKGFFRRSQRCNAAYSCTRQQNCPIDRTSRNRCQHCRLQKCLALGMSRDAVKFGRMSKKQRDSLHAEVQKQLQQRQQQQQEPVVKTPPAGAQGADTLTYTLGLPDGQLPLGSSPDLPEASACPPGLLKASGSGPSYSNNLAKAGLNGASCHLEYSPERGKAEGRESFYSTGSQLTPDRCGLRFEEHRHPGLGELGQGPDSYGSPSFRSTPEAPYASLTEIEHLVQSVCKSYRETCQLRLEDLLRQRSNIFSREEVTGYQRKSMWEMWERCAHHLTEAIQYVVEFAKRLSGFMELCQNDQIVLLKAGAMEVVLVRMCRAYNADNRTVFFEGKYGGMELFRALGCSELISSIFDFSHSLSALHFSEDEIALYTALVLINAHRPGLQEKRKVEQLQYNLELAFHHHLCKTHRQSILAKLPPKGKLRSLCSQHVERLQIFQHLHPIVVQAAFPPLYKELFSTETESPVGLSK
Test: RORγ Gal4 Reporter Gene Assay in 293T cells (firefly and renilla luciferase)
Type: cell-based, human
Settings: second value of the cell; Gal4 reporter gene assay in 293T cells, firefly luciferase
quantity measured: pIC50 (FF)

>>> measured("Cc1cc(C(C)(C)C)cc(-c2cc(C(=O)N[C@H]3C[C@H](C(=O)O)C3)c(C)n2CC2CCCCC2)c1OC(F)F [17/194]")
6.4
>>> measured("Cc1c(C(=O)NC2COC2)cc(-c2cc(C(=O)N(C)C(C)(C)C)nc(C(C)(C)C)c2)n1CC1CCCCC1 [6/1]")
6.7
>>> measured("Cc1c(C(=O)NC2CC(C)(O)C2)cc(-c2cc(C(C)(C)C)c3c(c2)C2(CCO3)CC2)n1CC1CCCCC1 (centres unmarked) [17/22]")
6.5
>>> measured("Cc1c(C(=O)NC2COC2)cc(-c2ccc(S(=O)(=O)NC(C)(C)C)c(C(C)(C)C)c2)n1CC1CCCCC1 [9/4]")
7.1
>>> measured("Cc1c(C(=O)NC2CCOCC2)cc(-c2ccc(S(=O)(=O)NC(C)C(C)(C)O)c(C(F)(F)F)c2)n1CC1CCCCC1 (centres unmarked) [17/146]")
7.4
>>> measured("CC(C)(C)NS(=O)(=O)c1ccc(-c2cc(C(=O)NC3CCOCC3)c(F)n2CC2CCCCC2)cc1C(F)(F)F [20/1]")
7.1
>>> measured("Cc1c(C(=O)NC2CC23CCOCC3)cc(-c2ccc(S(=O)(=O)NC(C)(C)C)c(C(F)(F)F)c2)n1CC1CCCCC1 (centres unmarked) [17/210]")
7.9

###

Target: RORγ ligand binding domain (LBD) (Homo sapiens)
Construct: made in house; host or cells: E. coli BL-21 (BL3), vector pDEST15
Assay: TR-FRET Activity Assay (ligand sensing, RORγ-LBD / coactivator peptide interaction, LANCE)
Assay type: biochemical
Conditions: first value of the cell FRET/FF/REN; TR-FRET activity assay; read-out: pIC50 (FRET) (converted)
quantity measured: IC50 (µM)

>>> measured("Cc1c(C(=O)N[C@H]2CCCOC2)cc(-c2ccc(S(=O)(=O)NC(C)(C)C)c(C(F)(F)F)c2)n1CC1CCCCC1 [17/139]")
0.158
>>> measured("Cc1c(C(=O)NCC2(O)CCOCC2)cc(-c2cc(C(C)(C)C)c3c(c2)C(C)(C)C(=O)N3C)n1CC1CCCCC1 [17/48]")
1
>>> measured("Cc1c(C(=O)N[C@H]2C[C@H](C(=O)O)C2)cc(-c2ccc(S(=O)(=O)NC(C)(C)C)c3c2CCCC3)n1CC1CCCCC1 [17/281]")
1

(1) CC(C)(C)NS(=O)(=O)c1ccc(-c2cc(C(=O)NC3CCOCC3)c(CF)n2CC2CCCCC2)cc1C(C)(C)C [17/118]
(2) Cc1c(C(=O)NCC2COC2)cc(-c2cc(C(C)(C)C)c3c(c2)C2(CCO3)CC2)n1CC1CCCCC1 [1/100]
Query: Returns: the label, 1 or 2 , whose recorded IC50 is the lower number. Mark your answer with the label of the selected entry.
Response: 2
